molecular target: Peroxisome proliferator-activated receptor alpha (Homo sapiens, UniProt Q07869); assay: Agonist activity at human PPAR alpha in a HepG2 cells by PPAR-GAL4 transactivation assay
pEC50: −log10 of the molar value.
Test readout: pEC50

Look over these answered cases.
pEC50 recorded for this compound, `Cc1oc(-c2ccccc2)nc1CCOc1ccc(C[C@]2(C(=O)O)CCCO2)cn1` , is 6.78

pEC50 recorded for this compound, Cc1oc(-c2cccc(Cl)c2)nc1CCOc1ccc(CC2(C(=O)O)CCCO2)cn1 (stereo unspecified) , is 7.34

pEC50 recorded for this compound, Cc1cccc(-c2nc(CCOc3ccc(CC4(C(=O)O)CCCO4)cn3)c(C)o2)c1 (stereo unspecified) , is 6.87

(P) Cc1oc(-c2ccccc2)nc1CCOc1ccc(CC2(C(=O)O)CC2)cn1
(Q) CCCC(Cc1ccc(OCCc2nc(-c3ccccc3)oc2C)nc1)C(=O)O (stereo unspecified)
(R) COc1cccc(-c2nc(CCOc3ccc(CC4(C(=O)O)CCCO4)cn3)c(C)o2)c1 (stereo unspecified)
(S) Cc1oc(-c2ccccc2)nc1CCOc1ccc(CC(C)C(=O)O)cn1 (stereo unspecified)
// query Hello, I need these entries ordered by pEC50, highest reading first. Thanks! Form entry: ranked labels (order as requested).
// result R, S, Q, P
(R: 7.05, S: 6.54, Q: 6.11, P: 5.21)

(P) CCOC(CC)(Cc1ccc(OCCc2nc(-c3ccccc3)oc2C)nc1)C(=O)O (stereo unspecified)
(Q) COC(Cc1ccc(OCCc2ccc(Oc3cccc(Cl)c3)cc2C)nc1)C(=O)O (stereo unspecified)
(R) COc1ccc(-c2nc(CCOc3ccc(CC4(C(=O)O)CCCO4)cn3)c(C)o2)cc1 (stereo unspecified)
// query List the 3 entries from lowest pEC50 to highest pEC50 value. Form entry: ranked labels (order as requested).
// result P, R, Q
(P: 5.33, R: 6.31, Q: 6.88)

====

target: Peroxisome proliferator-activated receptor gamma (Homo sapiens, UniProt P37231); test: Agonist activity at human PPAR gamma in a HepG2 cells by PPAR-GAL4 transactivation assay
Sequence (P37231 whole entry, the tested form may be a part): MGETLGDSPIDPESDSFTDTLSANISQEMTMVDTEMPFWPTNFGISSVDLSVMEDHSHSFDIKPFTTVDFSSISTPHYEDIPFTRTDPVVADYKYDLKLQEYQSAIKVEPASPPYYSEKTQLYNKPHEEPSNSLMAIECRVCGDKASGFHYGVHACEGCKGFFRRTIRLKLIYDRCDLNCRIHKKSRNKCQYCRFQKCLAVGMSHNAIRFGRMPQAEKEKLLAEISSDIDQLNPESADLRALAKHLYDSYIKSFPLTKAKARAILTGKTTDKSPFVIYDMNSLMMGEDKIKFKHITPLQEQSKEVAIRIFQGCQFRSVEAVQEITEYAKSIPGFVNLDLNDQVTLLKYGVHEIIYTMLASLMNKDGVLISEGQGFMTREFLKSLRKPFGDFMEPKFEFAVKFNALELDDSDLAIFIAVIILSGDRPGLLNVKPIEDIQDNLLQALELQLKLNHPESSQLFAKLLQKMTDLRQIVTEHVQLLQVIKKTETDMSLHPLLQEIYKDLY
pEC50: −log10 of the molar value.
Test readout: pEC50

(I) Cc1oc(-c2ccccc2)nc1CCOc1ccc(CC(CC(C)C)C(=O)O)cn1 (stereo not given)
(II) COC(Cc1ccc(OCCc2ccc(Oc3cccc(Cl)c3)cc2C)nc1)C(=O)O (stereo not given)
(III) Cc1oc(-c2ccc(C#N)cc2)nc1CCOc1ccc(CC2(C(=O)O)CCCO2)cn1 (stereo not given)
(IV) CCOC(CC)(Cc1ccc(OCCc2nc(-c3ccccc3)oc2C)nc1)C(=O)O (stereo not given)
// query Ranking request: pEC50, max to min, items above. Form entry: ranked labels (order as requested).
// result III, II, I, IV

====

Target: Peroxisome proliferator-activated receptor alpha (Homo sapiens)
Sequence (Q07869 whole entry): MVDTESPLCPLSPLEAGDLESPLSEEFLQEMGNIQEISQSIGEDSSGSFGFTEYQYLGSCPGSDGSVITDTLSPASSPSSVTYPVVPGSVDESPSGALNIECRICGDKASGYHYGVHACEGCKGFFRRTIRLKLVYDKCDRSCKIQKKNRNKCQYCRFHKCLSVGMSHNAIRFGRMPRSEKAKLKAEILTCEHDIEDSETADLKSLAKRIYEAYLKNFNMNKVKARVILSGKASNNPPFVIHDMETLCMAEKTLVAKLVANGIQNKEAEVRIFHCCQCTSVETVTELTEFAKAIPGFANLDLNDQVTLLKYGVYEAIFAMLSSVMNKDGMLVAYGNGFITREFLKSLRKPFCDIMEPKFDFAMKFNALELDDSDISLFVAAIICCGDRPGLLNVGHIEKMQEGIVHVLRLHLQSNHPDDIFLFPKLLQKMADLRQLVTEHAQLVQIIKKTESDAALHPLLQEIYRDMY
Test: Displacement of radiolabeled GW-2331 from human PPAR alpha by SPA binding assay
pKi: −log10 of the molar value.
Test readout: pKi

Look over these answered cases.
pKi recorded for this compound, `Cc1oc(-c2ccccc2)nc1CCOc1ccc(C[C@]2(C(=O)O)CCCO2)cn1` , is 7.49

pKi recorded for this compound, COC(Cc1ccc(OCCc2nc(-c3ccccc3)oc2C)nc1)C(=O)O (stereo not given) , is 6.74

pKi recorded for this compound, Cc1oc(-c2ccc(C#N)cc2)nc1CCOc1ccc(CC2(C(=O)O)CCCO2)cn1 (stereo not given) , is 6.50

pKi recorded for this compound, `Cc1oc(-c2ccccc2)nc1CCOc1ccc(CC2(C(=O)O)CCCCC2)cn1` , is 5.08

(1) COc1cccc(-c2nc(CCOc3ccc(CC4(C(=O)O)CCCO4)cn3)c(C)o2)c1 (stereo not given)
(2) Cc1oc(-c2ccc(Cl)cc2)nc1CCOc1ccc(CC2(C(=O)O)CCCO2)cn1 (stereo not given)
(3) Cc1oc(-c2ccccc2)nc1CCOc1ccc(CC(CC(C)C)C(=O)O)cn1 (stereo not given)
// query Hello, I need these entries ordered by pKi, highest reading first. Thanks! Form entry: ranked labels (order as requested).
// result 2, 1, 3
(2: 7.85, 1: 6.67, 3: 6.37)

(a) Cc1cccc(-c2nc(CCOc3ccc(CC4(C(=O)O)CCCO4)cn3)c(C)o2)c1 (stereo not given)
(b) Cc1oc(-c2ccccc2)nc1CCOc1ccc(CC(C)C(=O)O)cn1 (stereo not given)
// query Between the entries labelled a and b , which has a larger pKi value on record? Returns: label corresponding to the selected item.
// result a

====

target: Peroxisome proliferator-activated receptor alpha (Homo sapiens, UniProt Q07869); assay: Agonist activity at human PPAR alpha in a HepG2 cells by PPAR-GAL4 transactivation assay
Test readout: EC50 (nM)

Recorded EC50 for CCOC(Cc1ccc(OCCc2nc(-c3ccccc3)oc2C)nc1)C(=O)O (stereo not given) on Peroxisome proliferator-activated receptor alpha (Homo sapiens, UniProt Q07869) was 33

(a) COC(Cc1ccc(OCCc2nc(-c3ccccc3)oc2C)nc1)C(=O)O (stereo not given)
(b) Cc1oc(-c2ccc(C#N)cc2)nc1CCOc1ccc(CC2(C(=O)O)CCCO2)cn1 (stereo not given)
(c) Cc1oc(-c2ccccc2)nc1CCOc1ccc(CC(C(=O)O)C(C)C)cn1 (stereo not given)
(d) Cc1oc(-c2cccc(C(F)(F)F)c2)nc1CCOc1ccc(CC2(C(=O)O)CCCO2)cn1 (stereo not given)
// query Hello, I need these entries ordered by EC50, highest reading first. Thanks! Form entry: ranked labels (order as requested).
// result c, a, b, d

====

Molecular target: Peroxisome proliferator-activated receptor alpha (Homo sapiens) (UniProt Q07869)
Sequence (whole entry): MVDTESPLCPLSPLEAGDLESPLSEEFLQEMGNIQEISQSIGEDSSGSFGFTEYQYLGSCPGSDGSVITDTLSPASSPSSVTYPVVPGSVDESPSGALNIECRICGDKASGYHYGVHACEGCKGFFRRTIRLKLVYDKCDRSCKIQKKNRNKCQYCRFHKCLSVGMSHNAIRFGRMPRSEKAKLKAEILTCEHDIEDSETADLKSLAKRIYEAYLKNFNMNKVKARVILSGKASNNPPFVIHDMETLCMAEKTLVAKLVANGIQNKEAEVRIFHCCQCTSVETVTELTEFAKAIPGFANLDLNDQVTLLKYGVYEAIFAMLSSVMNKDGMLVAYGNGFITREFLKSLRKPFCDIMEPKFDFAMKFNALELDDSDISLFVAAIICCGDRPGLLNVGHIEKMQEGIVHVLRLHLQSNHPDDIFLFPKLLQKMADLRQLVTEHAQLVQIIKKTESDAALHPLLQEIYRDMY
Assay: Agonist activity at human PPAR alpha in a HepG2 cells by PPAR-GAL4 transactivation assay relative to GW-2331
Type: functional, cell-based
Test readout: %max (%)

%max recorded for this compound, COC(Cc1ccc(OCCc2nc(-c3ccccc3)oc2C)nc1)C(=O)O (stereo unspecified) , is 95

(a) Cc1oc(-c2cccc(C(F)(F)F)c2)nc1CCOc1ccc(CC2(C(=O)O)CCCO2)cn1 (stereo unspecified)
(b) Cc1oc(-c2cccc(Cl)c2)nc1CCOc1ccc(CC2(C(=O)O)CCCO2)cn1 (stereo unspecified)
// query Between the entries labelled a and b , which has a larger %max value on record? Returns: label corresponding to the selected item.
// result b
(b: 117%, a: 81%)

(a) Cc1oc(-c2ccccc2)nc1CCOc1ccc(CC(C(=O)O)C(C)C)cn1 (stereo unspecified)
(b) CCOC(CC)(Cc1ccc(OCCc2nc(-c3ccccc3)oc2C)nc1)C(=O)O (stereo unspecified)
// query Of a versus b , which is the one with smaller reported %max? Returns: label corresponding to the selected item.
// result b
(b: 64%, a: 93%)

====

Ki values by entry
molecular target: Peroxisome proliferator-activated receptor gamma (Homo sapiens, UniProt P37231); assay: Displacement of radiolabeled darglitazone from human PPAR gamma by SPA binding assay
Field: numeric (nM). Do not append units.

Ki recorded for this molecule, Cc1oc(-c2ccccc2)nc1CCOc1ccc(CC(C(=O)O)C(C)(C)C)cn1 (stereo not drawn) , is 12000

Ki recorded for this molecule, `Cc1oc(-c2ccccc2)nc1CCOc1ccc(CC2(C(=O)O)CCC2)cn1` , is 394

// next item, Ki requested
Ki recorded for this molecule, Cc1oc(-c2ccccc2)nc1CCCOc1ccc(CC2(C(=O)O)CCCO2)cn1 (stereo not drawn) , is 810
